Target system: T1, human Trop-2 expressed on cell surface (human, UniProt P09758 27-323)
T1 sequence (looked up): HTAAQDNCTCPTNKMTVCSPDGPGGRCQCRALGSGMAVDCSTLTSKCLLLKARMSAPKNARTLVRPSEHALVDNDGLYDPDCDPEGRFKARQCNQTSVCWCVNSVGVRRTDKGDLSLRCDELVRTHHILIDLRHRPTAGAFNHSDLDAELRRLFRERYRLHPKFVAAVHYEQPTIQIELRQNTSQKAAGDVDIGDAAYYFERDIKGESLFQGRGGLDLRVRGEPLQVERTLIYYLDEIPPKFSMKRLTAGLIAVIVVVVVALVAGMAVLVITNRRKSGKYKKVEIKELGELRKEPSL
Measurement protocol: cell-based or functional assay
# key: entry, value: Internalization %, MCF-7, 0.25 µg/ml, 4 h
Record the value in %, omitting the unit from your answer.

Item 66A1 (antibody, V domains shown, Rabbit-derived clone; LEM construct: VH + rabbit IgG CH1 + human IgG1 CH2-CH3) VH: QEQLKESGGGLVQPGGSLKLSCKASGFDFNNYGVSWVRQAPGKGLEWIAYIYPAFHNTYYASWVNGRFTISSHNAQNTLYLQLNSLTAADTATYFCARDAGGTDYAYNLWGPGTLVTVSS VL: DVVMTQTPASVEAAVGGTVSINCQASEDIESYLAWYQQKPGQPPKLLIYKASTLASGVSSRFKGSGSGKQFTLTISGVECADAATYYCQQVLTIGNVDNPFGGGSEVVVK has what recorded Internalization %, MCF-7, 0.25 µg/ml, 4 h?
45

Read the next record carefully.
Item 10A9 (antibody, V domains shown, Rabbit-derived clone; LEM construct: VH + rabbit IgG CH1 + human IgG1 CH2-CH3) VH: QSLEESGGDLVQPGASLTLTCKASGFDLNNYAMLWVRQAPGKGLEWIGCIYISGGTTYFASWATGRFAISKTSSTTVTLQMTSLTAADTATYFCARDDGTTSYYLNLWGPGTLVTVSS VL: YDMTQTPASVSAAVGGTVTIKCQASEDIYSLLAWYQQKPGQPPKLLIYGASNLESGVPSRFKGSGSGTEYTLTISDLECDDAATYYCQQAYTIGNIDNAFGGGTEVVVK has what recorded Internalization %, MCF-7, 0.25 µg/ml, 4 h?
45
